Experiment: qHTS Screen of the MIPE 4.0 Collection Against Ewings Sarcoma (RDES) (AID 1259252); note: nearly all actives have a fitted effect of over 35% in size
Settings: RD-ES Ewing sarcoma viability, CellTiter-Glo, 48 h; series mostly up to 45.8 µM
Inconclusive results are not listed. The source made the active and inactive calls. Calls come from the whole dose curve; as a rule, active = well fitted inhibition curve with a large enough effect; inconclusive = small, poorly fitted or top-dose-only effect; inactive = no such curve, though single readings can be large or run the other way.
Possible outcomes: label 1 = active, label 0 = inactive

molecule | category label
CC[N+](CC)(CC)CCOc1cccc(OCC[N+](CC)(CC)CC)c1OCC[N+](CC)(CC)CC | label 0
Nc1c2c(nc3ccccc13)CCCC2 | label 1
CC(C)(C)C(=O)Oc1ccc(S(=O)(=O)Nc2ccccc2C(=O)NCC(=O)O)cc1 | label 0
Nc1ccn([C@H]2CC[C@@H](CO)O2)c(=O)n1 | label 0
COc1ccccc1OCC(O)CN1CCN(CC(=O)Nc2c(C)cccc2C)CC1 (configuration not stated) | label 0
NC(=O)OCC(COC(N)=O)c1ccccc1 | label 0
COC(=O)Nc1nc2ccc(C(=O)c3cccs3)cc2[nH]1 | label 1

----------
Assay: Quantitative High-Throughput drug screen in 47 multiple myeloma cell lines against the NCATS MIPE library collection: LP1_DSMZ cell viability assay (AID 1918982); note: nearly all actives have a fitted effect of over 35% in size
Conditions: LP1 myeloma viability, CellTiter-Glo ATP luminescence, 48 h; series mostly up to 45.8 µM
Records with an inconclusive call do not appear. The source made the active and inactive calls. The call rests on the fitted dose curve; in most records, active means well fitted cell-killing curve with a large enough effect; inconclusive means small, poorly fitted or top-dose-only effect, or effect the other way; inactive means no such curve, though single readings can be large or run the other way.
Possible outcomes: active, inactive

compound | category label
OCCN1CCN(CCCN2c3ccccc3Sc3ccc(C(F)(F)F)cc32)CC1 | active
CC[N+](CC)(CC)CCOc1cccc(OCC[N+](CC)(CC)CC)c1OCC[N+](CC)(CC)CC | inactive
COc1ccccc1OCC(O)CN1CCN(CC(=O)Nc2c(C)cccc2C)CC1 (centres undefined) | inactive
CCc1cccc2c3c([nH]c12)C(CC)(CC(=O)O)OCC3 (centres undefined) | inactive
Cn1c(=O)c2[nH]cnc2n(C)c1=O | inactive
Nc1nnc(-c2cccc(Cl)c2Cl)c(N)n1 | inactive
CC(C)NCC(O)COc1ccc(CCOCC2CC2)cc1 (centres undefined) | inactive
C[C@@H]1CC(=O)NN=C1c1ccc(NN=C(C#N)C#N)cc1 | active
CNCCCC12CCC(c3ccccc31)c1ccccc12 | active
NCCS(=O)(=O)O | inactive
Cc1cnc(C(=O)NCCc2ccc(S(=O)(=O)NC(=O)NC3CCCCC3)cc2)cn1 | active
CS(=O)(=O)CCNCc1ccc(-c2ccc3ncnc(Nc4ccc(OCc5cccc(F)c5)c(Cl)c4)c3c2)o1 | active
C[C@H]1c2cccc(O)c2C(O)=C2C(=O)[C@]3(O)C(O)=C(C(N)=O)C(=O)[C@@H](N(C)C)[C@@H]3[C@@H](O)[C@@H]21 | inactive
O=C(C1CCCCC1)N1CC(=O)N2CCc3ccccc3C2C1 (centres undefined) | inactive

----------
Test system: HaCat
Assay: Cytotoxic Profiling of Annotated Libraries Using Quantitative High-Throughput Screening (AID 1296008); note: % is set by controls: 0 for no effect and ±100 for the full control effect; nearly all actives have a fitted effect of over 60% in size
Conditions: Five cell lines viability, CellTiter-Glo ATP luminescence, 48-72 h; hits give low values
Records with an inconclusive call do not appear.
Below is a list of entries, each paired with its recorded max response value.
metric: max response (%)

molecule | target system | result
CC(C)(Oc1ccc(C2CC2(Cl)Cl)cc1)C(=O)O (stereo not given) | HaCat | -0.292
CC1(CN2CCC(n3c(=O)[nH]c4ccccc43)CC2)OCc2ccccc2-n2cccc21 (stereo not given) | HaCat | -8
O=C(CCCN1CCC(O)(c2ccc(Cl)cc2)CC1)c1ccc(F)cc1 | HaCat | 2.18
NC(=O)NO | HaCat | -18.6
CC(C)NCC(O)COc1ccc(CCOCC2CC2)cc1 (stereo not given) | HaCat | 2.43

----------
Assay: qHTS of pediatric cancer cell lines to identify multiple opportunities for drug repurposing: Primary screen for LAN-5 cells (AID 1347100)
Settings: LAN-5 neuroblastoma viability, CellTiter-Glo luminescence, 48 h; series mostly up to 46 µM
Results filed as inconclusive are left out. Activity calls are given as the source filed them. Calls follow the shape of the dose curve; as a rule, active = well fitted cell-killing curve with a large enough effect; inconclusive = small, poorly fitted or top-dose-only effect; inactive = no such curve, though single readings can be large or run the other way.
Possible outcomes: Y (active), N (inactive)

compound | category label
CCC1(C)CC(=O)NC1=O (stereo not drawn) | N
Cc1cn([C@H]2C[C@H](N=[N+]=[N-])[C@@H](CO)O2)c(=O)[nH]c1=O | N
CC1COc2c(N3CCN(C)CC3)c(F)cc3c(=O)c(C(=O)O)cn1c23 (stereo not drawn) | N
O=c1[nH]cc(F)c(=O)[nH]1 | Y
O=C1Cc2cc(CCN3CCN(c4nsc5ccccc45)CC3)c(Cl)cc2N1 | N
CN1CCN(C2=Nc3cc(Cl)ccc3Nc3ccccc32)CC1 | N
CCOC(=O)c1ncn2c1CN(C)C(=O)c1cc(F)ccc1-2 | N
CC(C)(C)C(=O)Oc1ccc(S(=O)(=O)Nc2ccccc2C(=O)NCC(=O)O)cc1 | N
NC(=O)OCC(COC(N)=O)c1ccccc1 | N
Cc1cc(C(C)(C)C)cc(C)c1CC1=NCCN1 | N
Nc1ccn([C@H]2CC[C@@H](CO)O2)c(=O)n1 | N
Cc1cn([C@H]2C=C[C@@H](CO)O2)c(=O)[nH]c1=O | N
CC(=O)OCC(CCn1cnc2cnc(N)nc21)COC(C)=O | N

----------
Target: Cytochrome P450 2D6 (Homo sapiens)
Test: Cytochrome P450 family 2 subfamily D member 6 (CYP2D6) small molecule antagonists: luciferase biochemical (cell-free) qHTS assay (AID 1645840); note: nearly all actives have a fitted effect of over 55% in size
Details: P450-Glo CYP2D6 enzyme, luciferin luminescence, 1 h; series mostly up to 57.4 µM
Results filed as inconclusive are left out. Calls of active or inactive are those of the source. Calls come from the whole dose curve; as a rule, active = well fitted inhibition curve with a large enough effect in the repeat runs; inconclusive = weak or mixed curves; inactive = flat fitted curve, though single readings scatter.
Possible outcomes: y (active), n (inactive)

compound | category label
Cn1c(=O)c2c(ncn2C)n(C)c1=O | n
CCC1(c2ccccc2)C(=O)NCNC1=O | n
Cc1ccccc1N1C(=O)c2cc(S(N)(=O)=O)c(Cl)cc2NC1C (stereo unspecified) | n
NC(=O)OCC(COC(N)=O)c1ccccc1 | n
Clc1ccc2nsnc2c1NC1=NCCN1 | y
COc1cc2nc(N3CCN(C(=O)c4ccco4)CC3)nc(N)c2cc1OC | n
COc1ccc2c(c1)c(CC(=O)O)c(C)n2C(=O)c1ccc(Cl)cc1 | n
O=C1N(c2ccccc2)c2ccccc2C1(Cc1ccncc1)Cc1ccncc1 | n
CN1CCC(=C2c3ccccc3C=Cc3ccccc32)CC1 | y
Cc1ccc(-c2cc(C(F)(F)F)nn2-c2ccc(S(N)(=O)=O)cc2)cc1 | y
CC(C)(Oc1ccc(C2CC2(Cl)Cl)cc1)C(=O)O (stereo unspecified) | n

----------
Experiment: Quantitative High-Throughput drug screen in 47 multiple myeloma cell lines against the NCATS MIPE library collection: RPMI8226_ATCC cell viability assay (AID 1919871); note: nearly all actives have a fitted effect of over 30% in size
Details: RPMI8226 myeloma viability, CellTiter-Glo ATP luminescence, 48 h; series mostly up to 45.8 µM
Inconclusive results are not listed. Active and inactive are the calls of the source. Calls follow the shape of the dose curve; as a rule, active = well fitted cell-killing curve with a large enough effect; inconclusive = small, poorly fitted or top-dose-only effect, or effect the other way; inactive = no such curve, though single readings can be large or run the other way.
Possible outcomes: 1 (active), -1 (inactive)

compound | category label
COc1ccccc1N1CCN(CC(O)COc2cccc3ccccc23)CC1 (configuration not stated) | 1
O=c1[nH]cc(F)c(=O)[nH]1 | 1
CCN1CCCC1CNC(=O)c1cc(S(=O)(=O)CC)c(N)cc1OC (configuration not stated) | -1
CC(C)(Oc1ccc(C2CC2(Cl)Cl)cc1)C(=O)O (configuration not stated) | -1
CC#C[C@]1(O)CC[C@H]2[C@@H]3CCC4=CC(=O)CCC4=C3[C@@H](c3ccc(N(C)C)cc3)C[C@@]21C | 1
COc1cc2nc(N3CCN(C(=O)C4COc5ccccc5O4)CC3)nc(N)c2cc1OC (configuration not stated) | 1
CNCCCC12CCC(c3ccccc31)c1ccccc12 | 1
